assay-explanation: yeast display, Sf9 membrane polyspecificity reagent, FACS + sequencing; frameworks hold sequencing errors
metric-name: polyreactivity (PSR sort gate)

In: Hello, please tell me recorded polyreactivity (PSR sort gate) for this one: `QVQLVESGGGIVQAGGILRLSCAASGRNLHGYTMGWYRQAPGKERELVATISSIGGSTYYADSVKGRFTISRDNAKNTVYLQMNSLKPEDTAVYYCAATRGRRYQSYYWGQGTQVTVSS`
Out: low polyreactivity

In: Give polyreactivity (PSR sort gate) for `QVHLVESGGGLVQEGGSLRLSFAASGSSFIWYGMGWYRQAPGKARELVATITSSGSTNYADSVKGRFTISRDNAKNTVYLQMNSLKPEDTAVFYCAKRGPLRHYSWGQGTQVTVSS`
Out: low polyreactivity
